Data origin: patent US20240116985A1

Target or system: beta-catenin/TCF4 engagement (Homo sapiens, UniProt P35222)
Construct: expressed in transfected cells; host or cells: HEK293
Sequence (P35222 whole entry): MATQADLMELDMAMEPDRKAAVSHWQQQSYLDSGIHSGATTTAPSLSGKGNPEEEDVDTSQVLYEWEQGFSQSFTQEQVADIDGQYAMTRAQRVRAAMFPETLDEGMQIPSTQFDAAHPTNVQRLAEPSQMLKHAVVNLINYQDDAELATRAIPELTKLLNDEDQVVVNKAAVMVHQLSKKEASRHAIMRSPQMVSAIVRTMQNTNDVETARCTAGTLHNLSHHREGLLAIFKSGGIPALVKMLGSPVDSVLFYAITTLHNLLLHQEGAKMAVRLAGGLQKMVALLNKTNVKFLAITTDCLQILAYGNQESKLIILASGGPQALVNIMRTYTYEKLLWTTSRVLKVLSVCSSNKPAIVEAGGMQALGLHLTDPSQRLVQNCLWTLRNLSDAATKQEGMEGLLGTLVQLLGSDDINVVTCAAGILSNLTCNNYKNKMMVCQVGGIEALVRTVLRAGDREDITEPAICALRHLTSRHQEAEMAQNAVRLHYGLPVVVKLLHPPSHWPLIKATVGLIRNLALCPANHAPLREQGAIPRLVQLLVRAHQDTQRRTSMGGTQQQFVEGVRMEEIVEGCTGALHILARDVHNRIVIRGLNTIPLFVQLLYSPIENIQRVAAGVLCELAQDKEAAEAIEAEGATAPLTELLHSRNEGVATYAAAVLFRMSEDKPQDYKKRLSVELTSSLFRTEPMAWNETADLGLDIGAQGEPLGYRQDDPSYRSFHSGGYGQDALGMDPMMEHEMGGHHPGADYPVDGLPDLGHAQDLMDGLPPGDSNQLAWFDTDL
Procedure text: Nano-BRET target engagement assay (B-cat-Halo & TCF4-Luc in HEK293 cells)
Type: cell-based
Assay setup: absolute IC50; read-out: NanoBRET Abs IC50
Property measured: IC50 (µM)
Note: unit µM is implicit; provide only the numeric part.

Previously resolved entries follow.
CC(=O)N1CCC[C@]12CC=CCCCC1(CCCC=CCCCOC(=O)N3CC[C@@](C(=O)N[C@@H](Cc4ccccc4C(F)(F)F)C(=O)N[C@@H](Cc4ccc(Cl)cc4)C(=O)N[C@@H](C)C(N)=O)(C3)NC(=O)[C@H](CC(C)C)NC(=O)[C@H](Cc3ccccc3)NC(=O)[C@H](C)NC(=O)[C@H](CCC(N)=O)NC(=O)[C@H](Cc3cccc(C(=O)O)c3)NC(=O)[C@H](CC(=O)O)NC1=O)NC(=O)[C@H](CC(C)(C)C)NC(=O)[C@H](CC(=O)O)NC2=O (stereo partly drawn) [I-2223] : 9
CCCC[C@@H]1NC(=O)[C@H](CC(=O)O)NC(=O)[C@]2(CC=CCCCC3(CCCC=CCCCCCC[C@@](C)(C(=O)N[C@@H](Cc4ccccc4)C(=O)N[C@@H](Cc4csc5ccccc45)C(=O)N[C@@H](CCC(N)=O)C(N)=O)NC(=O)[C@H](CC(C)C)NC(=O)[C@H](Cc4ccccc4)NC(=O)[C@H](C)NC(=O)[C@H](C)NC(=O)[C@H](CCC(=O)O)NC(=O)[C@H](CC(=O)O)NC3=O)NC1=O)CCCN2C(C)=O (stereo partly drawn) [I-1523] : 8
CC(=O)N1CCC[C@]12CC=CCCCC1(CCCC=CCCCOC(=O)N3CC[C@@](C(=O)N[C@@H](Cc4ccsc4)C(=O)N[C@@H](Cc4csc5ccccc45)C(=O)N[C@@H](CCC(N)=O)C(N)=O)(C3)NC(=O)[C@H](CC(C)C)NC(=O)[C@H](Cc3ccccc3)NC(=O)[C@H](C)NC(=O)[C@H](C)NC(=O)[C@H](CN(CC(=O)O)C(=O)c3c(F)c(F)c(F)c(F)c3F)NC(=O)[C@H](CC(=O)O)NC1=O)NC(=O)[C@H](CC(C)(C)C)NC(=O)[C@H](CC(=O)O)NC2=O (stereo partly drawn) [I-2242] : 21.4
CC(=O)N1CCC[C@]12CC=CCCCC1(CCCC=CCCCCCC[C@@](C)(C(=O)N[C@@H](Cc3ccsc3)C(=O)N[C@@H](Cc3csc4ccccc34)C(=O)N[C@@H](CCC(N)=O)C(N)=O)NC(=O)[C@H](CC(C)C)NC(=O)[C@H](Cc3ccccc3)NC(=O)[C@H](C)NC(=O)[C@H](C)NC(=O)[C@H](CC(=O)O)NC(=O)[C@H](CC(=O)O)NC1=O)NC(=O)[C@H](CC(C)(C)C)NC(=O)[C@H](CC(=O)O)NC2=O (stereo partly drawn) [I-1188] : 7.2
CC(=O)N1CCC[C@]12CC=CCCCC1(CCCC=CCCCOC(=O)N3CC[C@@](C(=O)N[C@@H](Cc4ccccc4Cl)C(=O)N[C@@H](Cc4csc5ccccc45)C(=O)N[C@@H](CCC(N)=O)C(N)=O)(C3)NC(=O)[C@H](CC(C)C)NC(=O)[C@H](Cc3ccccc3)NC(=O)[C@H](C)NC(=O)CNC(=O)[C@H](Cc3cccc(C(=O)O)c3)NC(=O)[C@H](CC(=O)O)NC1=O)NC(=O)[C@H](CC(C)(C)C)NC(=O)[C@H](CC(=O)O)NC2=O (stereo partly drawn) [I-1684] : 4.5

Task: Return IC50 (reported value) for this compound: CC(=O)N1CCC[C@]12CC=CCCCC1(CCCC=CCCCOC(=O)N3CC[C@@](C(=O)N[C@@H](Cc4ccsc4)C(=O)N[C@H](C(=O)N[C@@H](C)C(N)=O)[C@H](C)c4ccc5ccccc5c4)(C3)NC(=O)[C@H](C(C)C)NC(=O)[C@H](Cc3ccccc3)NC(=O)[C@H](C)NC(=O)[C@H](CCC(N)=O)NC(=O)[C@H](Cc3cccc(C(=O)O)c3)NC(=O)[C@H](CC(=O)O)NC1=O)NC(=O)[C@H](CC(C)(C)C)NC(=O)[C@H](CC(=O)O)NC2=O (stereo partly drawn) [I-2312]
Output: 5.2

Task: Return IC50 (reported value) for this compound: CC(=O)N1CCC[C@]12CCCCCCC1(CCCCCCCCOC(=O)N3CC[C@@](C(=O)N[C@@H](Cc4ccccc4)C(=O)N[C@@H](Cc4csc5ccccc45)C(=O)N[C@@H](CCC(N)=O)C(N)=O)(C3)NC(=O)[C@H](CC(C)C)NC(=O)[C@H](Cc3ccccc3)NC(=O)[C@H](C)NC(=O)[C@H](C)NC(=O)[C@H](CN(CC(=O)O)CC(F)(F)F)NC(=O)[C@H](CC(=O)O)NC1=O)NC(=O)[C@H](CC(C)(C)C)NC(=O)[C@H](CC(=O)O)NC2=O (stereo partly drawn) [I-1711]
Output: 33.3
